measured endpoint: logP

{"compound smiles": "CC(C)(C)N(NC(=O)c1ccccc1)C(=O)c1ccc(I)cc1", "measured endpoint": "logP", "quantitative readout": 3.78}
{"compound smiles": "CC(C)(C)N(NC(=O)c1ccccc1)C(=O)c1ccc(C#N)cc1", "measured endpoint": "logP", "quantitative readout": 2.5}
{"compound smiles": "COc1ccc(C(=O)N(NC(=O)c2ccccc2)C(C)(C)C)cc1OC", "measured endpoint": "logP", "quantitative readout": 2.09}
{"compound smiles": "CC(C)(C)N(NC(=O)c1ccccc1)C(=O)c1ccc(C(F)(F)F)cc1", "measured endpoint": "logP", "quantitative readout": 3.77}
{"compound smiles": "CC(C)(C)N(NC(=O)c1ccccc1)C(=O)c1ccccc1", "measured endpoint": "logP", "quantitative readout": 2.45}
{"compound smiles": "Cc1ccc(C(=O)N(NC(=O)c2ccccc2)C(C)(C)C)c(C)c1", "measured endpoint": "logP", "quantitative readout": 3.18}
{"compound smiles": "Cc1ccc(C)c(C(=O)N(NC(=O)c2ccccc2)C(C)(C)C)c1", "measured endpoint": "logP", "quantitative readout": 3.25}
{"compound smiles": "CC(C)(C)N(NC(=O)c1ccccc1)C(=O)c1cccc(Br)c1", "measured endpoint": "logP", "quantitative readout": 3.49}
{"compound smiles": "CC(C)(C)N(NC(=O)c1ccccc1)C(=O)c1cccc(I)c1", "measured endpoint": "logP", "quantitative readout": 3.72}
{"compound smiles": "Cc1ccc(C(=O)N(NC(=O)c2ccccc2)C(C)(C)C)cc1", "measured endpoint": "logP", "quantitative readout": 2.99}
{"compound smiles": "CC(C)(C)N(NC(=O)c1ccccc1)C(=O)c1ccccc1Br", "measured endpoint": "logP", "quantitative readout": 2.69}
